Target: Alpha-1A adrenergic receptor (Oryctolagus cuniculus, UniProt O02824)
Sequence (O02824 whole entry): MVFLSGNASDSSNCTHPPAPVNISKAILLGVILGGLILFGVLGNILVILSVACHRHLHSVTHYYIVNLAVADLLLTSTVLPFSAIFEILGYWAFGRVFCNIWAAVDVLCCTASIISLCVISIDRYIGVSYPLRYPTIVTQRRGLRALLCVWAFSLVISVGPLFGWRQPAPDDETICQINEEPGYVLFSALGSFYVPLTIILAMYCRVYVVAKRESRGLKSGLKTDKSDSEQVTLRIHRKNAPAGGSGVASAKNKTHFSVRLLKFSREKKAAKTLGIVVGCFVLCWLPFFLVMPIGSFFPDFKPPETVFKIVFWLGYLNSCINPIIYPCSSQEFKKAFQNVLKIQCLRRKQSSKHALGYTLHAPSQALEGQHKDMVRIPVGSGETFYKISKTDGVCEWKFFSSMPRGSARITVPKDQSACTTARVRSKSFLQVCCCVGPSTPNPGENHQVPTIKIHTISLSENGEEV
Assay: Antagonistic activity against alpha 1A/1L receptor was assessed in a rabbit bladder neck functional assay
Settings: read-out: pA2 (converted)
experimental readout: Kb (nM)

compound: CN(C)C(=O)c1cccnc1NCCCN1CCN(c2ccccc2C2CC2)CC1
Kb / nM: 0.631

(1) CN(C)C(=O)c1cccnc1NCCCN1CCN(c2ccccc2OCC(F)(F)F)CC1
(2) Cc1ccc(N(CC2=NCCN2)c2cccc(O)c2)cc1 [PHENTOLAMINE]
(3) COc1cc(F)ccc1N1CCN(CCCNc2c(C(=O)N(C)C)cnc3c(C(N)=O)cccc23)CC1
Exercise: // sort entries: Kb, high to low Reply format: the labels, ordered as requested.
Key: 2, 3, 1

* * *

Target: Alpha-1A adrenergic receptor (Oryctolagus cuniculus)
Assay: Antagonistic activity against alpha 1A/1L receptor was assessed in a rabbit bladder neck functional assay
Conditions: read-out: pA2 (converted)
experimental readout: Kb (nM)

Known Kb results, listed for orientation:
smiles record: CCOc1ccccc1N1CCN(CCCNc2ncccc2C(=O)N(C)C)CC1
Kb [nM]: 0.501

smiles record: CN(C)C(=O)c1cccnc1N1CCC(NCCOc2ccccc2OCC(F)(F)F)CC1
Kb [nM]: 1.58

smiles record: COc1cc(C)ccc1N1CCN(CCCNc2ncccc2C(=O)N(C)C)CC1
Kb [nM]: 0.794

(a) COc1ccccc1N1CCN(CCCSc2ccccc2C(=O)N(C)C)CC1
(b) CN(C)C(=O)c1cnc2c(Cl)cccc2c1NCCCN1CCN(c2ccccc2OCC(F)(F)F)CC1
(c) COc1ccccc1N1CCN(CCCNc2ccncc2C(=O)N(C)C)CC1
Exercise: Hey, quick one: sort these by Kb, largest value first please. State the ranking by listing the labels in the requested order.
Key: c, a, b

* * *

Biological target: Alpha-1A adrenergic receptor (Oryctolagus cuniculus)
Test: Antagonistic activity against alpha 1A/1L receptor was assessed in a rabbit bladder neck functional assay
Details: read-out: pA2 (converted)
experimental readout: Kb (nM)

smiles record: Cc1nn(C)c2ncc(C(=O)N(C)C)c(NCCCN3CCN(c4ccccc4OCC(F)(F)F)CC3)c12
Kb [nM]: 0.501
--
smiles record: COc1ccccc1N1CCN(CCCNc2cccc(C)c2C(=O)N(C)C)CC1
Kb [nM]: 3.16
--
smiles record: Cc1noc2ncc(C(=O)N(C)C)c(NCCCN3CCN(c4ccccc4OCC(F)(F)F)CC3)c12
Kb [nM]: 1.58
--
smiles record: COc1ccccc1N1CCN(CCCNc2ncncc2C(=O)N(C)C)CC1
Kb [nM]: 3.98
--
smiles record: COc1cc(F)ccc1N1CCN(CCCNc2c(C(=O)N(C)C)cnc3c2nc(C)n3C)CC1
Kb [nM]: 0.631
--
smiles record: COc1cc(F)ccc1N1CCN(CCCNc2c(C(=O)N(C)C)cnc3nc(C)ccc23)CC1
Kb [nM]: 1.26

(P) COc1ccccc1N1CCN(CCCNc2nc(C)cc(C)c2C(N)=O)CC1
(Q) Cc1ccccc1N1CCN(CCCNc2ncccc2C(=O)N(C)C)CC1
Exercise: Select one: P or Q . Criterion: greater recorded Kb. Which one? Tell me its label.
Key: P
(P: 10 nM, Q: 2 nM)

(P) CNC(=O)c1cnc2c(c(C)nn2C)c1NCCCN1CCN(c2ccccc2OCC(F)(F)F)CC1
(Q) CN(C)C(=O)c1cccnc1NCCCN1CCN(c2ccccc2Cc2ccccc2)CC1
(R) COc1ccc(N2CCN(CCCNc3ncccc3C(=O)N(C)C)CC2)c(OC)c1
Exercise: Sort by Kb, descending. A ranking is expressed here by listing the labels in the requested order.
Key: R, Q, P
(R: 31.6 nM, Q: 6.31 nM, P: 0.1 nM)

(a) CN(C)C(=O)c1cccnc1NCCCN1CCN(c2ccccc2-c2ccccc2)CC1
(b) COc1ccccc1N1CCN(CCCNc2ncccc2C(=O)C2CC2)CC1
(c) COc1cc(F)ccc1N1CCN(CCCNc2c(C(=O)N(C)C)c[nH]c3c(Cl)cn[n+]2-3)CC1
(d) COc1ccccc1N1CCN(CCCOc2ccccc2C(=O)N(C)C)CC1
Exercise: Ordering criterion: Kb; begin with the maximum. Output spec: labels arranged per the requested ranking.
Key: d, a, c, b
(d: 3.98 nM, a: 1.26 nM, c: 0.794 nM, b: 0.501 nM)

(I) COc1cc(F)ccc1N1CCN(CCCNc2c(C(=O)N(C)C)cnc3c2c(C)nn3C)CC1
(II) CCCc1ccccc1N1CCN(CCCNc2ncccc2C(=O)N(C)C)CC1
Exercise: Of I versus II , which is the one with smaller reported Kb? Indicate your choice by writing its label.
Key: II

(1) COc1ccccc1N1CCN(CCCNc2ccccc2C(=O)N(C)C)CC1
(2) CN(C)C(=O)c1cccnc1N1CCC(NCCOc2ccccc2-c2cncnc2)CC1
Exercise: Given the listed items, does 1 or 2 have the lesser reported Kb? Indicate which entry you chose by stating its label.
Key: 1

(P) CN(C)C(=O)c1cnc2ccccc2c1NCCCN1CCN(c2ccccc2OCC(F)(F)F)CC1
(Q) CN(C)C(=O)c1cccnc1NCCCN1CCN(c2ccccc2C#N)CC1
Exercise: Between item P and item Q , which reported Kb is smaller? Select an item and report its label.
Key: Q

(I) Cc1cnccc1N1CCN(CCCNc2ncccc2C(=O)N(C)C)CC1
(II) CN(C)C(=O)c1cccnc1NCCCN1CCN(c2ccccc2OCC2CC2)CC1
(III) CN(C)C(=O)c1cnc2c(c(C(C)(C)C)nn2C)c1NCCCN1CCN(c2ccccc2OCC(F)(F)F)CC1
(IV) CN(C)C(=O)c1cccnc1NCCCN1CCN(c2ccccc2-c2ncco2)CC1
Exercise: Falling order of Kb, please. Sort the labels as requested; that list is your answer.
Key: I, III, IV, II

(1) COc1cc(F)ccc1N1CCN(CCCNc2ncccc2C(=O)N(C)C)CC1
(2) COc1ccccc1N1CCN(CCCNc2ccc(C)cc2C(=O)N(C)C)CC1
(3) CN(C)C(=O)c1cccnc1NCCCN1CCN(c2ccccc2C(F)(F)F)CC1
(4) COc1cc(F)ccc1N1CCN(CCCNc2c(C(=O)N(C)C)cnc3c(C)cccc23)CC1
Exercise: Place the items in sequence of falling Kb. Your answer should be the labels, listed in the requested order.
Key: 3, 4, 1, 2
(3: 12.6 nM, 4: 7.94 nM, 1: 1.58 nM, 2: 0.501 nM)
